The origin of these recorded values is patent US20230139171A1.

- subjectOfTest: human TLR8 (Homo sapiens, UniProt Q9NR97)
- Construct: host or cells: HEK-Blue cells
- Sequence (Q9NR97 27-1041): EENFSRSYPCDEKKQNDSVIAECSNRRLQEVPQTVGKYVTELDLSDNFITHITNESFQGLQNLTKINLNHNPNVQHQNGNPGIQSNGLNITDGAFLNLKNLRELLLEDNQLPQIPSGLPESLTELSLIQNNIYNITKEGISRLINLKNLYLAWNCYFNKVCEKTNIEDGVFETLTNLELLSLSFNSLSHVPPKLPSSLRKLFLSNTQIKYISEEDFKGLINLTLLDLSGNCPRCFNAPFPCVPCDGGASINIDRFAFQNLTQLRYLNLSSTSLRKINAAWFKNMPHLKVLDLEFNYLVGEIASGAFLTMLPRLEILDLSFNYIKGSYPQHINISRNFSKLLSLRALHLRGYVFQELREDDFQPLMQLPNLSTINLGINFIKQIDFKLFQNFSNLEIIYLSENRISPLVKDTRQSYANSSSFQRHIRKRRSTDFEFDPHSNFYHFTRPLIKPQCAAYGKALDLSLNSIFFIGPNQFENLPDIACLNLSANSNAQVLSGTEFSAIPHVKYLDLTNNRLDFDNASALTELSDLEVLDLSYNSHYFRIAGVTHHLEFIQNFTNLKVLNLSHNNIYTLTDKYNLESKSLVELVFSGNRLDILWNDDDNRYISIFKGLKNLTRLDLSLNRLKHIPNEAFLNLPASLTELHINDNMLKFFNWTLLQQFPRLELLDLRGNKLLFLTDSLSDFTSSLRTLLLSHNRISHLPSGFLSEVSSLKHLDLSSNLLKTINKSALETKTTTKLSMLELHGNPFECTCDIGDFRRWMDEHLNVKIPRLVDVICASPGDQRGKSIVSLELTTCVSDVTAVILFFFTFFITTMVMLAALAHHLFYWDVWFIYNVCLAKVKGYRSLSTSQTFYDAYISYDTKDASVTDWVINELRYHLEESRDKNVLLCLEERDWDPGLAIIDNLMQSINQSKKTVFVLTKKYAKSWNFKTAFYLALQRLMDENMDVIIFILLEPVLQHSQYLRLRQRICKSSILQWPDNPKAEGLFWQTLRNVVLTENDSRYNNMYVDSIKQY
- protocolDetails: TLR8 inhibition reporter assay (HEK-Blue cells, SEAP reporter, R848 stimulation)
- Format: cell-based
- conditionsUsed: HEK-Blue cells overexpressing human TLR8, SEAP reporter, R848 15.9 μM; read-out: TLR8 IC50
pIC50: −log10 of the molar value.
parameterMeasured: pIC50

Solved entries:
compound=Cc1c(-c2[nH]c3sc(N4CCN(C5CCOCC5)C[C@H]4C)nc3c2C(C)C)cn2ncnc2c1C parametermeasured=pIC50 observedresult=9.08
compound=Cc1c(-c2[nH]c3sc(N4CCNC[C@@H]4C)nc3c2C(C)C)cn2ncnc2c1C parametermeasured=pIC50 observedresult=9.37
compound="Cc1c(-c2[nH]c3sc(C4CCC(NCC(=O)N(C)C)CC4)nc3c2C(C)C)cn2ncnc2c1C (single isomer, unassigned) [Example 204]" parametermeasured=pIC50 observedresult=9.20
compound=CNCC(=O)N1CCN(c2nc3c(C(C)C)c(-c4cn5ncnc5c(C)c4C)[nH]c3s2)[C@H](C)C1 parametermeasured=pIC50 observedresult=8.10

a = COc1cc(-c2[nH]c3sc(C4CCC(N5CC(OC)C5)CC4)nc3c2C(C)C)cn2ncnc12 (single isomer, unassigned) [Example 122]
b = Cc1c(-c2[nH]c3sc(C4CCC(N5CC6(COC6)C5)CC4)nc3c2C(C)C)cn(C)c(=O)c1C (single isomer, unassigned) [Example 245]
c = Cc1cc(-c2[nH]c3sc(C4CCC(NCC5(C)COC5)CC4)nc3c2C(C)C)cn2ncnc12 (single isomer, unassigned) [Example 134]
Lookup: Rank items: key pIC50, increasing. Order the labels as requested and list them.
Found: a, c, b
